# Subject of test: ITK (Homo sapiens)
# Sequence (Q08881 1-620): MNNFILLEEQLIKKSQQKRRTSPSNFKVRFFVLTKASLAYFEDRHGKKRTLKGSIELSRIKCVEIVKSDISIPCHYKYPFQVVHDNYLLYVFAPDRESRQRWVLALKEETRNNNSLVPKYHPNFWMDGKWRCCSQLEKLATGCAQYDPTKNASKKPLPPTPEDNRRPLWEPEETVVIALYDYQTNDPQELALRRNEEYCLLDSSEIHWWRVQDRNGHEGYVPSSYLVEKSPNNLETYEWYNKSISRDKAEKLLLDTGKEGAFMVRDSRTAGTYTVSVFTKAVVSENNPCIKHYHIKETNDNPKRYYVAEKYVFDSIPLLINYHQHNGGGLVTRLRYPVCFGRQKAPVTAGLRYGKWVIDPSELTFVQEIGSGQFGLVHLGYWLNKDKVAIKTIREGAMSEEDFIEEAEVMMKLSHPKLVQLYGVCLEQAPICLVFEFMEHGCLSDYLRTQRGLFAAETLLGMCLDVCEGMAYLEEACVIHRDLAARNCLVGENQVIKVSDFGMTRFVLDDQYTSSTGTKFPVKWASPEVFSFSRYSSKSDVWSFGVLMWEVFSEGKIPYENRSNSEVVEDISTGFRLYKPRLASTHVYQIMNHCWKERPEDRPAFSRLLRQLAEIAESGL
# Experiment notes: Inhibition of a panel of kinases, in vitro HotSpot kinase assay: ITK
# Type: biochemical
# Experimental setup: D-compounds panel data; 1 μM ATP
Value kind: IC50

Worked examples follow.
# Compound smiles, IC50
measured = [
    ("C[C@@H]1[C@H](NC(=O)c2ccc(C(F)(F)F)cn2)CCCN1c1cnc(C(N)=O)c(Nc2cnn(C)c2)n1", "100 to 1000 nM"),
    ("C[C@@H]1[C@H](NC(=O)c2ccc(C3CC3)cc2)CCCN1c1cnc(C(N)=O)c(Nc2cnn(C3CCOCC3)c2)n1", "100 to 1000 nM"),
    ("C[C@@H]1[C@H](NC(=O)c2ccc(C3CC3)cc2)CCCN1c1cnc(C(N)=O)c(Nc2cnn(C3CC3)c2)n1", "100 to 1000 nM"),
    ("C[C@@H]1[C@H](NC(=O)N(C)C)CCCN1c1nnc(C(N)=O)c(Nc2cnn(C)c2)n1", "10 to 100 nM"),
    ("C[C@@H]1[C@H](NC(=O)c2cnc(C3CC3)cn2)CCCN1c1cnc(C(N)=O)c(Nc2cnn(C)c2)n1", "100 to 1000 nM"),
]

Consider the molecule shown here: Cn1cc(Nc2nc(N3CCC[C@@H]4[C@H]3CCCN4C(=O)c3ccc(C4CC4)cc3)cnc2C(N)=O)cn1 What is its recorded IC50?
1000 to 10000 nM

Also C[C@@H]1[C@H](NC(=O)c2ccc(C3CC3)cc2)CCCN1c1cnc(C(N)=O)c(Nc2ccc(N3CCCCC3)cc2)n1 ?
1000 to 10000 nM

* * *

# Subject of test: BTK-WT (Homo sapiens)
# Construct: purified from insect cells as a full-length construct containing an N-terminal 6X-His tag; His6 (N); made in house; host or cells: insect cells (baculovirus Sf21 in Method B)
# Sequence (Q06187 whole entry): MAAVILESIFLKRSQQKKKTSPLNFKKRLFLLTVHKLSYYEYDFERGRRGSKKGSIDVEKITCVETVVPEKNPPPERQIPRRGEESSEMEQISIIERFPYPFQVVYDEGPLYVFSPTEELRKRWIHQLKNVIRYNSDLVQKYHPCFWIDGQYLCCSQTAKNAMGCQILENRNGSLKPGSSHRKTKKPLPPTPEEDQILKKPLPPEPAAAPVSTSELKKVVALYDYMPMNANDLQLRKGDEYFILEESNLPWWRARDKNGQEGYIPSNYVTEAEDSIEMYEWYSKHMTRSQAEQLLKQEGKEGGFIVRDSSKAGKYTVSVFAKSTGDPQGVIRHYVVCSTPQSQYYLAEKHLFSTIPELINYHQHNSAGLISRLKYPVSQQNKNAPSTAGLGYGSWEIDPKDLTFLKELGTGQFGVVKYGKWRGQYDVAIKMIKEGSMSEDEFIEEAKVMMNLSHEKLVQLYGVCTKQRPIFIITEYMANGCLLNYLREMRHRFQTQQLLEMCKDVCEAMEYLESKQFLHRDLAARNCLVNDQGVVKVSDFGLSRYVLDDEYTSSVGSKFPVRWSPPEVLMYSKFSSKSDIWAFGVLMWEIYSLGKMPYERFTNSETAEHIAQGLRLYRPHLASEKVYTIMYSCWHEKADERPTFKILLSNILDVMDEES
# Experiment notes: Btk in vitro inhibitory activity (one of Method A TR-FRET, Method B electrophoretic mobility shift, Method C radiometric filter binding)
# Assay type: biochemical
# Experimental setup: E compounds, Table 17; read-out: IC50 BTK-WT
Catalogue of IC50 readings, one per entry.

Worked examples follow.
# Compound smiles, Experimental result
measured = [
    ("C=CC(=O)N1CCC[C@@H](Nc2nnc(C(N)=O)c(Nc3cc(C)ns3)n2)C1", "≤ 10 nM"),
    ("C=CC(=O)N1CCC[C@@H](Nc2nnc(C(N)=O)c(Nc3cccc(C(=O)N4CCOCC4)c3)n2)C1", "≤ 10 nM"),
]

Consider the compound shown here: C=CC(=O)N1CCC[C@@H](Nc2nnc(C(N)=O)c(Nc3ccc(C#N)cc3)n2)C1 What is its recorded IC50?
≤ 10 nM

* * *

# Subject of test: TEC (Homo sapiens)
# Sequence (P42680 whole entry): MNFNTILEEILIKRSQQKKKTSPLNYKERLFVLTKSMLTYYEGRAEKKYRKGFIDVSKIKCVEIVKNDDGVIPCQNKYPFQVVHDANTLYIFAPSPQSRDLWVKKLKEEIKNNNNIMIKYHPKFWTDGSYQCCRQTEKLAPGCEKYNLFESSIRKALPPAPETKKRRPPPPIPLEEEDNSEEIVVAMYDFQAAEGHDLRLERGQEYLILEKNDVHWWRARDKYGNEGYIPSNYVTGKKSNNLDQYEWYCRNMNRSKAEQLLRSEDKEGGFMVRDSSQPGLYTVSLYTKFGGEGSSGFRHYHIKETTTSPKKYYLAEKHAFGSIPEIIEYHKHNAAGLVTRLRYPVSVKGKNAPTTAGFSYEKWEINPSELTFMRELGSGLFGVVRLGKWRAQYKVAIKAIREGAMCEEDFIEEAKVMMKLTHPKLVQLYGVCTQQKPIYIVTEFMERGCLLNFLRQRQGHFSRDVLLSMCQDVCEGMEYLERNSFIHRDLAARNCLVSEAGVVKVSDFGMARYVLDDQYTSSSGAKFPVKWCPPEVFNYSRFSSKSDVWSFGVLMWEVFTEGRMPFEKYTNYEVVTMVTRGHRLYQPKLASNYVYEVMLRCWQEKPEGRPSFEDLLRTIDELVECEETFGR
# Experiment notes: Inhibition of a panel of kinases, in vitro HotSpot kinase assay: TEC
# Format: biochemical
# Experimental setup: Table 15, C compounds; 1 μM ATP
Value kind: IC50

Worked examples follow.
# Compound smiles, Experimental result
data = [
    ("C=CC(=O)N1CCC[C@@H](Nc2nnc(C(N)=O)c(Nc3ccc(CN(C(=O)OCc4ccccc4)[C@@H](C)C(C)(C)C)cc3)n2)C1", "≤ 10 nM"),
    ("C=CC(=O)N1CCC[C@@H](Nc2nnc(C(N)=O)c(Nc3ccc(Cn4cncn4)cc3)n2)C1", "≤ 10 nM"),
    ("C=CC(=O)N1CC[C@@H](N(C)c2cnc(C(N)=O)c(Nc3ccc(C4(C)CCN(C5CCCC5)CC4)cc3)n2)C1", "≤ 10 nM"),
]

Consider the compound shown here: C=CC(=O)N1CC[C@@H](N(C)c2nnc(C(N)=O)c(Nc3ccc(C(C)C)cc3)n2)C1 What is its recorded IC50?
≤ 10 nM

Also C=CC(=O)N1CCC[C@@H](Nc2cnc(C(N)=O)c(Nc3ccc(C4CCN(C5CCCC5)CC4)cc3)n2)C1 ?
≤ 10 nM

Also C=CC(=O)N1CCC[C@@H](Nc2nnc(C(N)=O)c(Nc3ccc(C4(C#N)CCCC4)cc3)n2)C1 ?
≤ 10 nM

Also C=CC(=O)N1CCC[C@@H](Nc2nnc(C(N)=O)c(Nc3cccc(-n4nccn4)c3)n2)C1 ?
≤ 10 nM

* * *

# Subject of test: UniProt P12931
# Experiment notes: Inhibition of a panel of kinases, in vitro HotSpot kinase assay: SRC
# Format: biochemical
# Experimental setup: D-compounds panel data; 1 μM ATP
pIC50: −log10 of the molar value.
Catalogue of pIC50 readings, one per entry.

Worked examples follow.
# Compound smiles, Subject of test, Experimental result
rows = [
    ("C[C@@H]1[C@H](NC(=O)c2ccc(C3CC3)cc2Cl)CCCN1c1cnc(C(N)=O)c(Nc2cnn(C)c2)n1", "UniProt P12931", "6.00 to 7.00"),
    ("C[C@@H]1[C@H](NC(=O)Nc2cccnc2)CCCN1c1cnc(C(N)=O)c(Nc2ccc(C3(C)CCN(C4CCCC4)CC3)cc2)n1", "UniProt P12931", "≥ 8.00"),
    ("C[C@@H]1[C@H](NC(=O)c2ccc(C3CC3)cc2)CCCN1c1cnc(C(N)=O)c(Nc2ccc(C3CCN(C)CC3)cc2)n1", "UniProt P12931", "6.00 to 7.00"),
]

Now look at this entry.
Consider the compound shown here: Cn1cc(Nc2nc(N3CCC[C@@H](n4ccc5cc(C6CC6)ncc5c4=O)C3)cnc2C(N)=O)cn1 What is its recorded pIC50?
7.00 to 8.00

* * *

# Subject of test: SRC (Homo sapiens, UniProt P12931)
# Sequence (P12931 whole entry): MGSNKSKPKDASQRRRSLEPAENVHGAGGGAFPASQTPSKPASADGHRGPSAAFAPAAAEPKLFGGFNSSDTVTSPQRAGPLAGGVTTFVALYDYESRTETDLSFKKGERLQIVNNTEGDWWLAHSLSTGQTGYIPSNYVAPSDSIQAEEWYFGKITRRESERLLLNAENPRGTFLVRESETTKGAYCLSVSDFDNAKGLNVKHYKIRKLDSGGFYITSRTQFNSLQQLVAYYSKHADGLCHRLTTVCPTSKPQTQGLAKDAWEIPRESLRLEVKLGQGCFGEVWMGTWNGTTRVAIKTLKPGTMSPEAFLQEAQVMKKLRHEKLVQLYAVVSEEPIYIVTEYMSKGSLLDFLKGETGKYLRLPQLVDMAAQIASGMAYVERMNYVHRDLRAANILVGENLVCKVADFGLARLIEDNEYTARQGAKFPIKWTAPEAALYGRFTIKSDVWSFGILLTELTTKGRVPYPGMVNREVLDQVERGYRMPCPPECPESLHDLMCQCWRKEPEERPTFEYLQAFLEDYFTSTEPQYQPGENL
# Experiment notes: Inhibition of a panel of kinases, in vitro HotSpot kinase assay: SRC
# Format: biochemical
# Experimental setup: D-compounds panel data; 1 μM ATP
Value kind: IC50

Worked examples follow.
# Compound, IC50
records = [
    ("COC(C)(C)c1ccc(C(=O)N[C@@H]2CCCN(c3cnc(C(N)=O)c(Nc4cnn(C)c4)n3)[C@@H]2C)cc1 [Example D-161]", "10 to 100 nM"),
    ("C[C@@H]1[C@H](NC(=O)c2ccc3nn(C)cc3c2)CCCN1c1cnc(C(N)=O)c(Nc2cnn(C)c2)n1 [Example D-267]", "10 to 100 nM"),
    ("Cc1csc(Nc2nc(N3CCC[C@@H](NC(=O)c4ccc(C5CC5)cc4F)[C@H]3C)cnc2C(N)=O)n1 [Example D-63]", "> 10000 nM"),
    ("C[C@@H]1[C@H](NC(=O)c2ccc(C(C)(C)O)c(F)c2)CCCN1c1cnc(C(N)=O)c(Nc2cnn(C)c2)n1 [Example D-160]", "10 to 100 nM"),
]

Consider the compound shown here: C[C@@H]1[C@H](NC(=O)c2ccc(C3CC3)cc2)CCCN1c1cnc(C(N)=O)c(Nc2ccc(N3CCN(C)CC3)cc2F)n1 [Example D-103] What is its recorded IC50?
1000 to 10000 nM

Also C[C@@H]1[C@H](NC(=O)c2ccc(C3CC3)nc2)CCCN1c1cnc(C(N)=O)c(Nc2ccc(N3CCN(C)CC3)cc2)n1 [Example D-203] ?
10 to 100 nM

Also CN(C)C(=O)N[C@H]1CCCN(c2cnc(C(N)=O)c(Nc3ccc(C4(C)CCN(C5CCCC5)CC4)cc3)n2)[C@H]1CO [Example D-59] ?
1000 to 10000 nM

* * *

# Subject of test: LCK (Homo sapiens, UniProt P06239)
# Sequence (P06239 whole entry): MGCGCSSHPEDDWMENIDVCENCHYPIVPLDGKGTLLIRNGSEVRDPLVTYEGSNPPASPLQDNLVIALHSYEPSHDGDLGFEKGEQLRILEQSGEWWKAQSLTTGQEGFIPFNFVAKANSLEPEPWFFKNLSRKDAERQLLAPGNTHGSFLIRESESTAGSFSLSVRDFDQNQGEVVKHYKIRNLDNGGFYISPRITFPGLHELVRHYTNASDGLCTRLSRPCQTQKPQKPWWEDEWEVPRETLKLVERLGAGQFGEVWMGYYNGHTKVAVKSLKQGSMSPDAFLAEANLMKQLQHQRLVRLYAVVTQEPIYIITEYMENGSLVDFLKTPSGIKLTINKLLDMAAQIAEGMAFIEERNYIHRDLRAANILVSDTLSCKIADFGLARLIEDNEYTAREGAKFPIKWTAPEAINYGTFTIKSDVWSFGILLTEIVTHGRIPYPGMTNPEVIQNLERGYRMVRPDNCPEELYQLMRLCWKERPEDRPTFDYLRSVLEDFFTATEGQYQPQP
# Experiment notes: Inhibition of a panel of kinases, in vitro HotSpot kinase assay: LCK
# Assay type: biochemical
# Experimental setup: D-compounds panel data; 1 μM ATP; read-out: IC50 LCK
Value kind: IC50

Worked examples follow.
# Compound, IC50
measured = [
    ("C[C@@H]1[C@H](NC(=O)c2ccc(C3CC3)nc2)CCCN1c1cnc(C(N)=O)c(Nc2ccc(N3CCC(F)(F)CC3)cc2)n1 [Example D-305]", "100 to 1000 nM"),
    ("C[C@@H]1[C@H](NC(=O)c2ccc(C3CC3)cc2)CCCN1c1cnc(C(N)=O)c(Nc2cnn(C3CCNCC3)c2)n1 [Example D-280]", "< 10 nM"),
    ("Cc1cc(Nc2nc(N3CCC[C@@H](NC(=O)c4ccc(C5CC5)cc4F)C3)cnc2C(N)=O)on1 [Example D-2]", "> 10000 nM"),
    ("C[C@@H]1[C@H](NC(=O)c2ccc(C3CC3)cc2F)CCCN1c1cnc(C(N)=O)c(Nc2ccc(CN3CCN(C)CC3)cc2)n1 [Example D-113]", "10 to 100 nM"),
    ("Cc1cc(Nc2nc(N3CCC[C@@H](c4ncc(-c5ccccc5)[nH]4)C3)cnc2C(N)=O)sn1 [Example D-171]", "100 to 1000 nM"),
    ("C[C@@H]1[C@H](NC(=O)c2ccc(C3(C)COC3)cc2)CCCN1c1cnc(C(N)=O)c(Nc2cnn(C)c2)n1 [Example D-228]", "100 to 1000 nM"),
    ("C[C@@H]1[C@H](NC(=O)c2cc(C(C)(C)C)n[nH]2)CCCN1c1cnc(C(N)=O)c(Nc2cnn(C)c2)n1 [Example D-244]", "100 to 1000 nM"),
    ("CN(C)c1ccc2c(c1)CCN([C@@H]1CCCN(c3cnc(C(N)=O)c(Nc4cnn(C)c4)n3)C1)C2=O [Example D-156]", "1000 to 10000 nM"),
]

Consider the compound shown here: C[C@@H]1[C@H](NC(=O)c2ccc3c(c2)OCCO3)CCCN1c1cnc(C(N)=O)c(Nc2cnn(C)c2)n1 [Example D-224] What is its recorded IC50?
100 to 1000 nM

Also Cn1cc(Nc2nc(N3C4CCC(NC(=O)c5ccc(C6CC6)cc5)C3CC4)cnc2C(N)=O)cn1 (single isomer, unassigned) [Example D-200] ?
1000 to 10000 nM

Also C[C@@H]1[C@H](NC(=O)c2ccc(C3CC3)cc2F)CCCN1c1cnc(C(N)=O)c(Nc2cc(CN3CCOCC3)ns2)n1 [Example D-173] ?
10 to 100 nM

Also Cc1cc(Nc2nc(N3CCC[C@H](NC(=O)N(C)C)[C@@H]3CO)cnc2C(N)=O)sn1 [Example D-68] ?
> 10000 nM

Also C[C@@H]1[C@H](N2CCN(C)C2=O)CCCN1c1cnc(C(N)=O)c(Nc2cnn(C)c2)n1 [Example D-93] ?
100 to 1000 nM
